- Measured On: UniProt:P45452
- Test Method Notes: MMP-13 inhibition (thiopeptide or fluorescent peptide substrate assay)
- Assay type: biochemical
- Applied Conditions: read-out: MMP-13 IC50
Counter-ions that a name gives are not always drawn.
Experimental Endpoint: IC50 (nM)

>>> recorded_result("COc1ccc(S(=O)(=O)N(Cc2cccnc2)c2c(C)cc(-c3ccc(Cl)s3)cc2C(=O)NO)cc1")
2.8
>>> recorded_result("COc1ccc(S(=O)(=O)N(Cc2cccnc2)c2c(C)cc(-c3cccc([N+](=O)[O-])c3)cc2C(=O)NO)cc1 [Example 400, hydrochloride salt]")
4.9
>>> recorded_result("COc1ccc(-c2cc(C)c(N(Cc3cccnc3)S(=O)(=O)c3ccc(OC)cc3)c(C(=O)NO)c2)cc1 [Example 401, hydrochloride salt]")
2.8
>>> recorded_result("COc1ccc(S(=O)(=O)N(Cc2ccccc2)c2c(OCCO[Si](C)(C)C(C)(C)C)cccc2C(=O)NO)cc1")
320
>>> recorded_result("COc1ccc(S(=O)(=O)N(Cc2cccnc2)c2c(C)cc(-c3cc4ccccc4s3)cc2C(=O)NO)cc1 [Example 402, hydrochloride salt]")
8.5
>>> recorded_result("CCN(CC)Cc1cc(C)c(N(Cc2ccccc2)S(=O)(=O)c2ccc(OC)cc2)c(C(=O)NO)c1")
113

---

- Measured On: MMP-1 (Homo sapiens, UniProt P03956)
- Sequence (P03956 100-469): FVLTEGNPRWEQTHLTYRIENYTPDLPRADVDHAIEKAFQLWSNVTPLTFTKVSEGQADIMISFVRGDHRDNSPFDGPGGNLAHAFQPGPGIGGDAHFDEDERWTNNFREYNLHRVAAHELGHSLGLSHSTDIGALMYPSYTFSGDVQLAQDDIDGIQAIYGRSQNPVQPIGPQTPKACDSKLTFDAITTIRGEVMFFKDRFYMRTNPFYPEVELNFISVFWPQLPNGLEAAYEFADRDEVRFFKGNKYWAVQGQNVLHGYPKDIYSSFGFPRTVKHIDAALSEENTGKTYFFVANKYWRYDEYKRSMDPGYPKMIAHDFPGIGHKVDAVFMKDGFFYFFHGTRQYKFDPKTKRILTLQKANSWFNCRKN
- Test Method Notes: MMP-1 inhibition (thiopeptide or fluorescent peptide substrate assay)
- Assay type: biochemical
- Applied Conditions: read-out: MMP-1 IC50
// NB: equality with 0.6 µM counts as f; only IC50 strictly below is t

>>> class("COc1ccc(S(=O)(=O)N(Cc2cccnc2)c2c(C)cc(-c3ccc(C=NO)cc3)cc2C(=O)NO)cc1")
"t"
>>> class("COc1ccc(S(=O)(=O)N(Cc2ccccc2)c2cccc(C)c2C(=O)NO)cc1")
"f"
>>> class("COc1ccc(S(=O)(=O)N(Cc2c(F)c(F)c(OC)c(F)c2F)c2c(C)cc(C)cc2C(=O)NO)cc1")
"t"
>>> class("C=Cc1cc(C)c(N(Cc2ccccc2)S(=O)(=O)c2ccc(OC)cc2)c(C(=O)NO)c1")
"t"
>>> class("COc1ccc(S(=O)(=O)N(C)c2c(CN3CCCC3)cccc2C(=O)NO)cc1")
"f"
>>> class("COc1ccc(S(=O)(=O)N(Cc2ccccc2)c2c(OCC(F)(F)F)cccc2C(=O)NO)cc1")
"f"
>>> class("COc1ccc(S(=O)(=O)N(Cc2cccnc2)c2c(C)cc(-c3ccc(Cl)s3)cc2C(=O)NO)cc1")
"t"
>>> class("COc1ccc(S(=O)(=O)N(CC(=O)N2CCN(C)CC2)c2c(C)cccc2C(=O)NO)cc1")
"f"
>>> class("Cc1cc(C)c(N(Cc2ccccc2)S(=O)(=O)c2ccc(F)cc2)c(C(=O)NO)c1")
"t"
>>> class("COc1ccc(S(=O)(=O)N(Cc2cccnc2)c2c(C(=O)NO)cc(OC)c(OC)c2OC)cc1")
"f"
